Experiment: qHTS screen for small molecules that inhibit ELG1-dependent DNA repair in human embryonic kidney (HEK293T) cells expressing luciferase-tagged ELG1; note: nearly all actives have a fitted effect of over 55% in size
Details: HEK293T ELG1-luciferase reporter, luminescence, 16 h, DNA damage induced by 5-fluorouridine; series mostly up to 46.1 µM
Screen size: about 330,000 compounds; about 7,700 (2.3%) were called active. Another 26% or so got no clear call; they are omitted. Calls come from the whole dose curve; as a rule, active = well fitted inhibition curve with a large enough effect; inconclusive = small, poorly fitted or top-dose-only effect, or effect the other way; inactive = flat fitted curve, though single readings scatter. The full list was thinned out, with actives kept by preference.
Respond using exactly one of the listed classes: active, inactive

{"compound": "CCN1CCN(C2CCCCC2NS(=O)(=O)c2ccc(Cl)cc2)CC1 (configuration not stated)", "answer-label": "inactive"}
{"compound": "COc1cc(CN2CCCN(C)CC2)c([N+](=O)[O-])cc1OC", "answer-label": "inactive"}

Inquiry: Test call for this compound, please: CN(CC(=O)Nc1ccc(Cl)cc1)CC(=O)Nc1cccc2ccccc12
Reply text: inactive

Inquiry: What classification did O=C(CSc1nc2ccccc2s1)Nc1ccc(C(=O)O)cc1 end up with in this test?
Reply text: inactive

Inquiry: // outcome(item) with item = COc1ccc2c(c1OC)C(=O)OC2c1c(O)nc(SC)n(-c2ccccc2)c1=O (configuration not stated)
Reply text: inactive

Inquiry: Given C/C(N)=C(/C#N)C(=O)COC(=O)c1cc(-c2cccc(Br)c2)nc2ccccc12 , state the outcome it received in this test.
Reply text: active
